target: Serine/threonine-protein kinase TBK1 (Homo sapiens); experiment: Inhibition of recombinant full length human N-terminal His-tagged TBK1 using biotin-labelled Ahx-GDEDFSSFAEPG peptide as substrate preincubated with enzyme for 15 mins followed by substrate addition and further incubated for 30 mins in presence of 1 mM of ATP by TR-FRET assay
Sequence (Q9UHD2 whole entry): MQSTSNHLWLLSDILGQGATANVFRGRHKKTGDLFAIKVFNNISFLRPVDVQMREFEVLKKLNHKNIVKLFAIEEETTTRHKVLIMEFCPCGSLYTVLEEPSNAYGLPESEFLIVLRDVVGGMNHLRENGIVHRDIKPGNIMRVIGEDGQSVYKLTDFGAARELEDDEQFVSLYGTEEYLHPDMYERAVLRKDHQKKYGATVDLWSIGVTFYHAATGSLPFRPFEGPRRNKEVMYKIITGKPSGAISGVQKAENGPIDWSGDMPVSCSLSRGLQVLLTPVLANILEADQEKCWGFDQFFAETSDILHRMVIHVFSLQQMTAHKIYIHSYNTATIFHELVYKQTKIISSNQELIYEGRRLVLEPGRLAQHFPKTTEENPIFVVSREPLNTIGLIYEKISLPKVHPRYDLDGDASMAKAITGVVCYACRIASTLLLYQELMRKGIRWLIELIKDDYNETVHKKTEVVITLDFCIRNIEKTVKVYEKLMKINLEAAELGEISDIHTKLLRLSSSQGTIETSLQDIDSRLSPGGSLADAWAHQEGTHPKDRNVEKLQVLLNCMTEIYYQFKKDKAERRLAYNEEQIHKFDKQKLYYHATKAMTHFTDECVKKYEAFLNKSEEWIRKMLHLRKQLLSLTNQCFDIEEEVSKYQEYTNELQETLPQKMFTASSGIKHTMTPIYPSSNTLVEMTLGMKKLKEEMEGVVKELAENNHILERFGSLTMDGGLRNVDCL
MEASUREMENT_LABEL: log10 IC50 (log10 of the value in nM)

COMPOUND	STUDY_SYSTEM	log10 IC50
Cc1cc(-c2ccc3nc(Nc4cc([C@@H](C)N5CCN(C(=O)CC(F)(F)F)CC5)ccn4)[nH]c3c2)ncn1	Serine/threonine-protein kinase TBK1 (Homo sapiens)	1.23
Cc1noc(-c2ccc3nc(Nc4cc(C(C)N5CCN(C(=O)CC(F)(F)F)CC5)ccn4)[nH]c3c2)n1 (racemic)	Serine/threonine-protein kinase TBK1 (Homo sapiens)	2.92
N#Cc1ccc2nc(Nc3cc(CN4CCN(C(=O)CC(F)(F)F)CC4)ccn3)[nH]c2c1	Serine/threonine-protein kinase TBK1 (Homo sapiens)	2.79
O=C(NCC1CC1)c1ccc2nc(Nc3cc(CN4CCN(C(=O)CC(F)(F)F)CC4)ccn3)[nH]c2c1	Serine/threonine-protein kinase TBK1 (Homo sapiens)	3.14
Cc1noc(-c2ccc3nc(Nc4cc([C@H](C)N5CCN(C(=O)CC(F)(F)F)CC5)ccn4)[nH]c3c2)n1	Serine/threonine-protein kinase TBK1 (Homo sapiens)	3.40
CN(C)c1cc(-c2ccc3nc(Nc4cc(CN5CCN(C(=O)CC(F)(F)F)CC5)ccn4)[nH]c3c2)ncn1	Serine/threonine-protein kinase TBK1 (Homo sapiens)	2.22
Cc1noc(-c2ccc3nc(Nc4cc(CN5CCN(CC(F)F)CC5)ccn4)[nH]c3c2)n1	Serine/threonine-protein kinase TBK1 (Homo sapiens)	3.31
O=C(CC(F)(F)F)N1CCN(Cc2ccnc(Nc3nc4ccc(-c5cnn(CC6CC6)c5)cc4[nH]3)c2)CC1	Serine/threonine-protein kinase TBK1 (Homo sapiens)	2.14
CCn1cc(-c2ccc3nc(Nc4cc(CN5CCN(C(=O)CC(F)(F)F)CC5)ccn4)[nH]c3c2)cn1	Serine/threonine-protein kinase TBK1 (Homo sapiens)	2.72
Cc1noc(-c2ccc3nc(Nc4cc(CN5CCNCC5)ccn4)[nH]c3c2)n1	Serine/threonine-protein kinase TBK1 (Homo sapiens)	4.17
Cc1cc(-c2ccc3nc(Nc4cc(CN5CCN(C(=O)CC(F)(F)F)CC5)ccn4)[nH]c3c2)ccn1	Serine/threonine-protein kinase TBK1 (Homo sapiens)	2.59
Cc1noc(-c2ccc3nc(Nc4cc(CN5CCN(CCO)CC5)ccn4)[nH]c3c2)n1	Serine/threonine-protein kinase TBK1 (Homo sapiens)	3.71
CNc1cc(-c2ccc3nc(Nc4cc(CN5CCN(C(=O)CC(F)(F)F)CC5)ccn4)[nH]c3c2)ncn1	Serine/threonine-protein kinase TBK1 (Homo sapiens)	2.19
Cc1noc(-c2ccc3nc(Nc4cc(CN5CCN(C(=O)C6CCC6)CC5)ccn4)[nH]c3c2)n1	Serine/threonine-protein kinase TBK1 (Homo sapiens)	3.42
Cc1noc(-c2ccc3nc(Nc4cc(CN5CCN(CCC(F)(F)F)CC5)ccn4)[nH]c3c2)n1	Serine/threonine-protein kinase TBK1 (Homo sapiens)	3.72
